These data points were gathered from patent US20240116921A1.

Assayed System: phosphorylated ERBB2 (pERBB2) (Homo sapiens)
Construct: endogenous in cells
Sequence (P04626 23-1255): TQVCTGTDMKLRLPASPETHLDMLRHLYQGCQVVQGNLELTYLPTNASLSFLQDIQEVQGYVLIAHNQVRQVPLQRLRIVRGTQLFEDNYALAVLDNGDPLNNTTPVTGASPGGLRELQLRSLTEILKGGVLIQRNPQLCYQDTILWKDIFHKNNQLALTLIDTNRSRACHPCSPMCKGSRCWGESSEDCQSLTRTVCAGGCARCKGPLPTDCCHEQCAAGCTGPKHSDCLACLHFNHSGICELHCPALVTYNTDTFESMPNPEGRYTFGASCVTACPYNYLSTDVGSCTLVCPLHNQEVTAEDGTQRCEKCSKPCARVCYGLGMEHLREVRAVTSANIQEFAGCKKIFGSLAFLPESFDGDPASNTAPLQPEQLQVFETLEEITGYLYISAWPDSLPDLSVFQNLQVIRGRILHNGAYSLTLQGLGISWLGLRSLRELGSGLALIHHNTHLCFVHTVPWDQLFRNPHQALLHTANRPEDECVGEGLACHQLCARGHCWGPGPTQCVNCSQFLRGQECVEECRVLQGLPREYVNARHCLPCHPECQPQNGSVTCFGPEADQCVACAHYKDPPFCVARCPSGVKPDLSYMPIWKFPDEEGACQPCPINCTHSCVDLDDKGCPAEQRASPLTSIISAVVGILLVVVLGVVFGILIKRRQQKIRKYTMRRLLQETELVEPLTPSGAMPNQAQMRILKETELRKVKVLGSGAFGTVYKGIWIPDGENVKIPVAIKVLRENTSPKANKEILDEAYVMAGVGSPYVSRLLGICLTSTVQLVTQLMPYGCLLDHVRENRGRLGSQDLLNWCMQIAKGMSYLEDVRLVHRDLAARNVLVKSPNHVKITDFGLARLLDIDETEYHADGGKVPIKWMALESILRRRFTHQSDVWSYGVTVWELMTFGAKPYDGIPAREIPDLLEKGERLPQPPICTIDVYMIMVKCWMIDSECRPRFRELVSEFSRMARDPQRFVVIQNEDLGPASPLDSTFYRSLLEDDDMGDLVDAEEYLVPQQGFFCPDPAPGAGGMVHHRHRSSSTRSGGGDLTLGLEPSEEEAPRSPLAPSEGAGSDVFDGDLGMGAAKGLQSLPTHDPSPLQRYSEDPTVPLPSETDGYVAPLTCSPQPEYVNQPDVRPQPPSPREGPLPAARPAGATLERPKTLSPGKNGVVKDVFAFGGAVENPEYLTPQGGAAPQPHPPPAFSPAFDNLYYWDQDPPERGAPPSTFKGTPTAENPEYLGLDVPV
Method Notes: Detection of phosphorylated ERBB2 (pERBB2) by ELISA in BT-474 cells
Protocol Conditions: four hours incubation
Counter-ions that a name gives are not always drawn.
Measure Name: log10(IC50) (log10 of the value in µM)

Compound	Assayed System	log10(IC50)
Cc1cc(Nc2ncnc3cnc(N4CC/C(=C\CN(C)C)C4=O)cc23)ccc1Oc1ccn2c(C)cnc2c1	phosphorylated ERBB2 (pERBB2) (Homo sapiens)	-1.27
Cc1cc(Nc2ncnc3ccc(N4CC/C(=C\CN(C)C)C4=O)nc23)ccc1Oc1ccc2ocnc2c1	phosphorylated ERBB2 (pERBB2) (Homo sapiens)	-1.47
Cc1cc(Nc2ncnc3cnc(N4CC(C)/C(=C\CN(C)C)C4=O)cc23)ccc1Oc1ccc2c(c1)nnn2C (single isomer, unassigned) [Example S86, Enantiomer #2]	phosphorylated ERBB2 (pERBB2) (Homo sapiens)	-0.86
C=C1CCN(c2cc3c(Nc4ccc(Oc5ccn6ncnc6c5)c(C)c4)ncnc3cc2OCCN(C)C)C1=O	phosphorylated ERBB2 (pERBB2) (Homo sapiens)	0.81
CN(C)C/C=C1\CCN(c2ccc3ncnc(Nc4cc(F)c(Oc5ccn6ncnc6c5)cc4F)c3n2)C1=O	phosphorylated ERBB2 (pERBB2) (Homo sapiens)	-1.62
Cc1cc(Nc2ncnc3cnc(N4CC/C(=C\CN(C)C)C4=O)cc23)ccc1Oc1cncc(F)c1	phosphorylated ERBB2 (pERBB2) (Homo sapiens)	-1.75
Cc1c(Oc2ccn3ncnc3c2)ccc(Nc2ncnc3ccc(N4CC/C(=C\CN(C)C)C4=O)nc23)c1F [Compound 78, hydrochloride]	phosphorylated ERBB2 (pERBB2) (Homo sapiens)	-1.77

---

Assayed System: phosphorylated EGFR (pEGFR) (Homo sapiens)
Construct: performed to measure phosphorylated EGFR levels using A431 cells (10% FBS); endogenous in cells
Method Notes: Detection of phosphorylated EGFR (pEGFR) in EGF-stimulated A431 cells
Protocol Conditions: A431 cells (10% FBS), 4 hours incubation, EGF 30 ng/mL 10 minutes, AlphaLISA
Description: Enzyme-linked immunosorbent assays (ELISA) were performed to measure phosphorylated EGFR levels using A431 cells (10% FBS). A431 (1.0*10^4 cells/40 μl/well) cells were seeded in 384 well. […] Acceptor mix (PerkinElmer, cat #ALSU-PEGFR-A50K) was prepared just before use and 5 μL was dispensed to all the wells, followed by a 1.5-2 h incubation at room temperature in dark. […] Plates were read on the Envision (PerkinElmer) using standard AlphaLISA settings. […]
pIC50: −log10 of the molar value.
This listing pairs compounds with measured pIC50.

Compound	Assayed System	Reported Relation	pIC50
C=C1CCCN(c2ccc3ncnc(Nc4ccc(Oc5ccn6ncnc6c5)c(C)c4)c3n2)C1=O [Compound 95]	phosphorylated EGFR (pEGFR) (Homo sapiens)	=	6.32
Cc1cc(Nc2ncnc3ccc(N4CC/C(=C\CN(C)C)C4=O)cc23)ccc1Oc1ccc2c(c1)ncn2C [Compound 33]	phosphorylated EGFR (pEGFR) (Homo sapiens)	=	5.94
Cc1cc(Nc2ncnc3ccc(N4CC/C(=C\CN(C)C)C4=O)nc23)ccc1Cc1ccc2c(c1)ncn2C [Compound 54]	phosphorylated EGFR (pEGFR) (Homo sapiens)	=	5.81
Cc1cc(Nc2ncnc3ccc(N4CC(C)C(=CCN(C)C)C4=O)nc23)ccc1Oc1ccn2ncnc2c1 (single isomer, unassigned) [Example S98, Enantiomer #2]	phosphorylated EGFR (pEGFR) (Homo sapiens)	<	5.00
CN(C)C/C=C1\CCN(c2ccc3ncnc(Nc4ccc(Oc5ccc6c(c5)ncn6C)c(Cl)c4)c3n2)C1=O [Compound 98]	phosphorylated EGFR (pEGFR) (Homo sapiens)	=	6.03
Cc1cc(Nc2ncnc3ccc(N4CC/C(=C\CN(C)C)C4=O)nc23)ccc1Oc1ccc2ocnc2c1 [Compound 66]	phosphorylated EGFR (pEGFR) (Homo sapiens)	=	7.03
Cc1cc(Nc2ncnc3ccc(N4CC/C(=C\[C@H](C)N(C)C)C4=O)nc23)ccc1Oc1ccn2ncnc2c1 [Compound 113]	phosphorylated EGFR (pEGFR) (Homo sapiens)	<	5.00

---

Assayed System: phosphorylated EGFR (pEGFR) (Homo sapiens)
Construct: performed to measure phosphorylated EGFR levels using A431 cells (10% FBS); endogenous in cells
Method Notes: Detection of phosphorylated EGFR (pEGFR) in EGF-stimulated A431 cells
Protocol Conditions: A431 cells (10% FBS), 4 hours incubation, EGF 30 ng/mL 10 minutes, AlphaLISA

Compound	Reported Relation	IC50, nM
C=C1C(=O)N(c2ccc3ncnc(Nc4ccc(Oc5ccn6ncnc6c5)c(C)c4)c3c2)CC1COCCN(C)C (single isomer, unassigned) [Example S111, Enantiomer #1]	=	274
C=C1C(=O)N(c2ccc3ncnc(Nc4ccc(Cc5ccn6ncnc6c5)c(C)c4)c3c2)C2CC12 (single isomer, unassigned) [Example S79, Enantiomer #2]	=	798
Cc1cc(Nc2ncnc3cnc(N4CC/C(=C\CN(C)C)C4=O)cc23)ccc1Oc1ccn2nnnc2c1 [Compound 107]	>	10000
CN(C)C/C=C1\CCN(c2ccc3ncnc(Nc4ccc(Oc5cccnc5)c(F)c4)c3n2)C1=O [Compound 126]	=	1110
Cc1cc(Nc2ncnc3cnc(N4CC(C)C(=CCN(C)C)C4=O)cc23)ccc1Oc1ccc2c(c1)ncn2C (single isomer, unassigned) [Example S97, Enantiomer #2]	=	490
Cc1cc(Nc2ncnc3cnc(N4CC(C)/C(=C\CN(C)C)C4=O)cc23)ccc1Oc1ccc2c(c1)nnn2C (single isomer, unassigned) [Example S86, Enantiomer #2]	>	10000
C=C1CCN(c2ccc3ncnc(Nc4cc(C)c(Oc5ccn6ncnc6c5)cc4F)c3c2)C1=O [Compound 15]	=	1250
Cc1cc(Nc2ncnc3ccc(N4CC/C(=C\CN(C)C)C4=O)nc23)ccc1Oc1ccc2[nH]cnc2c1 [Compound 118]	=	177
Cc1cc(Nc2ncnc3cnc(N4CC/C(=C\CN5CCC5)C4=O)cc23)ccc1Oc1ccn2ncnc2c1 [Compound 102]	=	3010
CC1CN(c2ccc3ncnc(Nc4ccc(Oc5ccn6ncnc6c5)c(F)c4)c3n2)C(=O)/C1=C/CN(C)C (single isomer, unassigned) [Example S127, Enantiomer #1]	=	575
CN(C)C/C=C1\CCN(c2ccc3ncnc(Nc4ccc(Oc5ccc6c(c5)ncn6C)cc4F)c3n2)C1=O [Compound 99]	>	10000
C=C1C(=O)N(c2ccc3ncnc(Nc4ccc(Oc5ccn6ncnc6c5)c(C)c4)c3c2)C[C@@H]1C [Compound 19]	=	5630
CN(C)C/C=C1\CCN(c2cc3c(Nc4ccc(Oc5ccn6ncnc6c5)c(F)c4)ncnc3cn2)C1=O [Compound 129]	=	2320

---

Assayed System: Ba/F3 ERBB2 A775_G776insYVMA (Homo sapiens, UniProt P04626, DUP772-775, cells depend on it)
Sequence (P04626 with tags, fused parts or gaps DUP772-775): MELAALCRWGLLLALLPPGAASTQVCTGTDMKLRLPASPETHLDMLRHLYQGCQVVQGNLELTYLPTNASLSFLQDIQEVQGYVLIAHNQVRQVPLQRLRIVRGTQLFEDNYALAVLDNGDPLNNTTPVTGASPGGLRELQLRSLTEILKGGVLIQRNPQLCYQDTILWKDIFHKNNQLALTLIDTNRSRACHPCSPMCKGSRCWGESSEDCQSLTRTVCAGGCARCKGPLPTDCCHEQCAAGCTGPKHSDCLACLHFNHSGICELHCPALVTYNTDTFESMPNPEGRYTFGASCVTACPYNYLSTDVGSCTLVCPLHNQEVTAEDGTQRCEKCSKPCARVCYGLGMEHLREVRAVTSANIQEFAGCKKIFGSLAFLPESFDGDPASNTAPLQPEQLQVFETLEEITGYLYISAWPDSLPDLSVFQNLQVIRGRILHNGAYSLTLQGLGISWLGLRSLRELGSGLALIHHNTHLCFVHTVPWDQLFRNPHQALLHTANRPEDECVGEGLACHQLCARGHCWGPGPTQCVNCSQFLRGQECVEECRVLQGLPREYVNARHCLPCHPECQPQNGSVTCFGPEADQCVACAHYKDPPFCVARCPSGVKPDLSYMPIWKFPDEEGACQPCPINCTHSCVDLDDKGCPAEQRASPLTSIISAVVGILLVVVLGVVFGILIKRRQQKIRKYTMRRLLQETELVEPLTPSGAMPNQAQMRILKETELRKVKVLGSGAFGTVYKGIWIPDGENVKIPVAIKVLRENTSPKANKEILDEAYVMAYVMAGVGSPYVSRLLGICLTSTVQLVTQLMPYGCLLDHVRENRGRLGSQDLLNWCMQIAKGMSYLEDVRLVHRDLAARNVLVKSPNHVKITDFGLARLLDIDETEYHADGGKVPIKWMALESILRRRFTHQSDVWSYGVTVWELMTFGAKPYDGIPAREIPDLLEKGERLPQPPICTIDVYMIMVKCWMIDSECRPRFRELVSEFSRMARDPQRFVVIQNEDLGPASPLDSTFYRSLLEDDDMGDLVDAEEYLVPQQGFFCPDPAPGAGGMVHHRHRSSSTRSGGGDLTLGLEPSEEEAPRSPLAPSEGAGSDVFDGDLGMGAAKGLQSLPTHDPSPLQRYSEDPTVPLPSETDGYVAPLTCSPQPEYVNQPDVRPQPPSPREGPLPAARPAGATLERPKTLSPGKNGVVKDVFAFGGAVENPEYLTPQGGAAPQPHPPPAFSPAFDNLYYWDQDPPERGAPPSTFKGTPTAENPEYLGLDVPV
Method Notes: Cell viability assay, Ba/F3 ERBB2 A775_G776insYVMA
Type: cell-based, mouse
Protocol Conditions: Ba/F3 ERBB2 A775_G776insYVMA cells, 72 hours, CellTiter Glo; Tables B2-B4; read-out: IC50, cell viability, Ba/F3 ERBB2 A775_G776insYVMA
Counter-ions that a name gives are not always drawn.
Here the recorded GI50 is given for each entry.

Compound	Reported Relation	GI50 [µM]
C=C1CCN(c2ccc3ncnc(Nc4ccc(Oc5ccc(C)nc5)c(C)c4)c3c2)C1=O	=	0.202
C=C1CCN(c2ccc3ncnc(Nc4cc(C)c(Oc5ccn6ncnc6c5)cc4F)c3c2)C1=O	=	0.245
C=C1CCN(c2ccc3ncnc(Nc4ccc(Oc5ccn6ncnc6c5)c(C)c4)c3c2)C1=O	=	0.028
C=C1CCN(c2ccc3ncnc(Nc4ccc(Oc5ccn(C)c(=O)c5)c(C)c4)c3c2)C1=O	=	0.236
Cc1cc(Nc2ncnc3ccc(N4CC/C(=C\CN(C)C)C4=O)cc23)ccc1Oc1ccn2ncnc2c1 [Compound 18, hydrochloride]	=	0.0771
C=C1CCN(c2ccc3ncnc(Nc4ccc(Cc5ccn6ncnc6c5)c(C)c4)c3c2)C1=O	=	0.169
C=C1CCN(c2ccc3ncnc(Nc4ccc(Oc5ccn6ncnc6c5)c(C)c4)c3c2F)C1=O	>	1
C=C1CCN(c2ccc3ncnc(Nc4ccc(Oc5cnc(C)cn5)c(C)c4)c3c2)C1=O	>	1
C=C1CCN(c2ccc3ncnc(Nc4ccc(Oc5ccn6ccnc6c5)c(C)c4)c3c2)C1=O	=	0.016
C=C1CCN(c2ccc3ncnc(Nc4ccc(Oc5ccn(C(F)F)c(=O)c5)c(C)c4)c3c2)C1=O	=	0.113

---

Assayed System: phosphorylated EGFR (pEGFR) (Homo sapiens, UniProt P00533)
Construct: performed to measure phosphorylated EGFR levels using A431 cells (10% FBS); endogenous in cells
Sequence (P00533 25-1210): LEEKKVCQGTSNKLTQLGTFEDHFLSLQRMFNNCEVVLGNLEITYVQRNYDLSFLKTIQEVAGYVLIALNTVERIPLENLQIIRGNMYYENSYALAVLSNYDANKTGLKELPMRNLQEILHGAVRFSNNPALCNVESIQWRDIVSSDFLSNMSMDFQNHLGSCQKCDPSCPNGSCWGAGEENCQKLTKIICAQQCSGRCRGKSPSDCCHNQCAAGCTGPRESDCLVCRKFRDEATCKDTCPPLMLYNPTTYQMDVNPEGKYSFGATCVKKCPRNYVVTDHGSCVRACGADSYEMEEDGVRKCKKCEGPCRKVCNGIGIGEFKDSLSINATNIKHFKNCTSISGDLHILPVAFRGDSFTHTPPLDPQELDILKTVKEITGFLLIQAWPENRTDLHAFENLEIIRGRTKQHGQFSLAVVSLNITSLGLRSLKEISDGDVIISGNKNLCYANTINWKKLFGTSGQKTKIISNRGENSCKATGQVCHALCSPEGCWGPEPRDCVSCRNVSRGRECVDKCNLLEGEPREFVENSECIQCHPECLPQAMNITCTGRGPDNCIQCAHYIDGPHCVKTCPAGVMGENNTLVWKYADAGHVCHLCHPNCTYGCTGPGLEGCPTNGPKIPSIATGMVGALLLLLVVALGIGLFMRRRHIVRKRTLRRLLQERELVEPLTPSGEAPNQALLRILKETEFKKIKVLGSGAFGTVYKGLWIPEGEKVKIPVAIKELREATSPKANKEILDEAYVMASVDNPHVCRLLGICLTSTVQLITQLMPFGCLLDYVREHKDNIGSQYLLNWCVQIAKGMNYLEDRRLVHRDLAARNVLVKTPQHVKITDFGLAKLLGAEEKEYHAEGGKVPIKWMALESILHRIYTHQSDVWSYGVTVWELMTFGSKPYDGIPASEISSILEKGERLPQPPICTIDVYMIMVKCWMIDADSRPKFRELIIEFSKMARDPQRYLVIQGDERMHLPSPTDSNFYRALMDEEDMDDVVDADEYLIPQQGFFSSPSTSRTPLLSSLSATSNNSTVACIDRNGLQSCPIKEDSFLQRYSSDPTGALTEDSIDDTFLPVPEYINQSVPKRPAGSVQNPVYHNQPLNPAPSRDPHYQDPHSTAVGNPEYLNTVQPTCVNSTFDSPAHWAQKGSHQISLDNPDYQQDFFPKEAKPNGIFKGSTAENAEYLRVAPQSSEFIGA
Method Notes: Detection of phosphorylated EGFR (pEGFR) in EGF-stimulated A431 cells
Protocol Conditions: A431 cells (10% FBS), 4 hours incubation, EGF 30 ng/mL 10 minutes, AlphaLISA

Compound	IC50
CNC/C=C1\CCN(c2ccc3ncnc(Nc4ccc(Oc5ccc6c(c5)ncn6C)c(C)c4)c3n2)C1=O [Compound 100, formic acid]	157 nM
Cc1cc(Nc2ncnc3cnc(N4CC/C(=C\C5CN(C)C5)C4=O)cc23)c(F)cc1Oc1ccn2ncnc2c1 [Compound 138]	> 10000 nM
C=C1C(=O)N(c2ccc3ncnc(Nc4ccc(Cc5ccn6ncnc6c5)c(C)c4)c3c2)C[C@H]1C [Compound 36]	2330 nM
CC1CN(c2cc3c(Nc4ccc(Oc5ccc6c(c5)nnn6C)cc4)ncnc3cn2)C(=O)/C1=C/CN(C)C (single isomer, unassigned) [Compound 137]	> 10000 nM
C=C1CCN(c2ccc3ncnc(Nc4ccc(Oc5ccc6c(c5)ncn6C)c(C)c4)c3n2)C1=O [Compound 87, formic acid]	8160 nM
C=C1CCN(c2ccc3ncnc(Nc4ccc(Oc5ccc6cncnc6c5)c(C)c4)c3c2)C1=O [Compound 50]	2150 nM
Cc1cc(Nc2ncnc3cnc(N4CC/C(=C\CN(C)C)C4=O)cc23)c(F)cc1Oc1ccc2c(c1)ncn2C [Compound 76]	> 10000 nM
